Details: 308.15 K; 85 kPa; Liquid; Vibrating tube method
Endpoint: mass density (kg/m3)
API: value field is a number in kg/m3; no unit string.

Worked cases, mass density given:
1. CC(C)O; 772.1
2. CCCO; 791.3
3. CCC(C)O (centres undefined); 793.6

Here is another compound to look at.
// lookup mass density for NCCCO
976.2

----------
Conditions: 293.15 K; 85 kPa; Liquid; Concentric cylinders viscometry
Listed next: entries and their corresponding viscosity.
Write down the numeric answer in mPa·s and omit the unit.

# annotated cases, reported viscosity shown
1) NCCCO; 37.33
2) CCC(C)O (centres undefined); 3.743
3) CCCO; 2.215

Now look at this one.
Recorded viscosity for CC(C)O , please?
2.429

----------
Details: 313.15 K; 85 kPa; Liquid; Vibrating tube method
Endpoint: mass density (kg/m3)
Report the value in kg/m3 with no unit label.

Answered cases to consult:
1. CCCO [propan-1-ol]; 787.2
2. CC(C)O [propan-2-ol]; 767.6
3. NCCCO [3-amino-1-propanol]; 972.3

# input for lookup
Entry under review: CCC(C)O (centres undefined) [butan-2-ol] . Reported mass density?
789.2

----------
Conditions: 318.15 K; 85 kPa; Liquid; Vibrating tube method
Endpoint: mass density (kg/m3)
The figure you give is taken to be in kg/m3; do not add the unit.

1) NCCCO; 968.5

Would you mind telling me what mass density value was observed for CC(C)O ?
763.1

Give the measured mass density of CCCO .
783.1

// returns reported mass density for input CCC(C)O (centres undefined)
784.7

----------
Details: 303.15 K; 85 kPa; Liquid; Vibrating tube method
Endpoint: mass density (kg/m3)
Entry rule: numbers only, all in kg/m3.

Worked examples, 3 compounds total:
1. CCC(C)O (centres undefined); 797.9
2. CC(C)O; 776.4
3. NCCCO; 980.3

Please turn your attention to the following entry.
Quick one: mass density for CCCO ?
795.4

----------
Below, each entry is listed with its recorded viscosity.
Conditions: 313.15 K; 85 kPa; Liquid; Concentric cylinders viscometry
Response body: numeric value in mPa·s, unit text excluded.

Some molecules with recorded viscosity:
1) CCCO [propan-1-ol]; 1.399
2) CC(C)O [propan-2-ol]; 1.366

Would you mind telling me what viscosity value was observed for CCC(C)O (centres undefined) [butan-2-ol] ?
1.828

Entry NCCCO [3-amino-1-propanol] : reported viscosity = ?
14.21

----------
Conditions: 323.15 K; 85 kPa; Liquid; Concentric cylinders viscometry
Known viscosity of a selection of compounds
Write down the numeric answer in mPa·s and omit the unit.

1. CCC(C)O (centres undefined); 1.318
2. NCCCO; 9.546
3. CC(C)O; 1.052

Which viscosity value belongs to CCCO ?
1.129

----------
Conditions: 308.15 K; 85 kPa; Liquid; Concentric cylinders viscometry
Endpoint: viscosity (mPa·s)
Write down the numeric answer in mPa·s and omit the unit.

Solved entries (count: 3):
1. NCCCO [3-amino-1-propanol]; 17.67
2. CCC(C)O (centres undefined) [butan-2-ol]; 2.162
3. CCCO [propan-1-ol]; 1.563

// moving on: another record for viscosity
Report viscosity for CC(C)O [propan-2-ol] please.
1.567

----------
Settings: 323.15 K; 85 kPa; Liquid; Vibrating tube method
Endpoint: mass density (kg/m3)
Form entry: value (kg/m3) — number only.

1) NCCCO [3-amino-1-propanol]; 964.9
2) CC(C)O [propan-2-ol]; 758.5
3) CCC(C)O (centres undefined) [butan-2-ol]; 780.2

Quick check: mass density of CCCO [propan-1-ol] ?
778.9

----------
Recorded mass density, one value per entry.
Conditions: 293.15 K; 85 kPa; Liquid; Vibrating tube method
Give the number; kg/m3 is assumed, so skip it.

1) CCC(C)O (centres undefined); 806.2
2) CC(C)O; 784.9

What mass density value was documented for this molecule, CCCO ?
803.5

What measured mass density goes with NCCCO ?
987.8

----------
Details: 298.15 K; 85 kPa; Liquid; Concentric cylinders viscometry
Endpoint: viscosity (mPa·s)
Reply numerically in mPa·s, unit not repeated.

Sample answers from the record:
1) NCCCO; 28.59
2) CC(C)O; 2.095
3) CCC(C)O (centres undefined); 3.101

What value of viscosity has been reported for the following compound? CCCO
1.97

----------
Item-by-item account of viscosity
Settings: 318.15 K; 85 kPa; Liquid; Concentric cylinders viscometry
The answer is to be given in mPa·s; state only the numeric part.

Reference set, count: 3
1. CCCO [propan-1-ol]; 1.255
2. CC(C)O [propan-2-ol]; 1.195
3. CCC(C)O (centres undefined) [butan-2-ol]; 1.559

Then this compound:
Recorded viscosity of NCCCO [3-amino-1-propanol] , please.
11.58

----------
Settings: 303.15 K; 85 kPa; Liquid; Concentric cylinders viscometry
Endpoint: viscosity (mPa·s)
The answer is to be given in mPa·s; state only the numeric part.

Study these solved cases before continuing.
1. CCC(C)O (centres undefined); 2.579
2. NCCCO; 22.31
3. CC(C)O; 1.808

# input for lookup
Please give the measured viscosity for this compound: CCCO
1.752

----------
Settings: 298.15 K; 85 kPa; Liquid; Vibrating tube method
Each entry below carries its reported mass density.
Hi! Could you send only the number? It should be in kg/m3, unit omitted.

Example entries begin here.
1. CC(C)O [propan-2-ol]; 780.7
2. CCC(C)O (centres undefined) [butan-2-ol]; 802

Returns the measured mass density for the input compound. Input: NCCCO [3-amino-1-propanol]
984.3

Look up mass density for this compound: CCCO [propan-1-ol]
799.4
